- System: K-562
- experiment.description: NCI human tumor cell panel
- Type: cell-based
- condition.details: K562, read-out: Log10 LC50 (converted)
- Excerpt: Considering the diversity of tumors in terms of cell type, morphology, growth rate and other cellular characteristics, the U.S. National Cancer Institute (NCI) has developed a "disease-oriented" approach to antitumor activity screening (M.R. Boyd, in "Principle of Practice of Oncology" J.T. Devita, S. Hellman, S.A. Rosenberg (Eds.) Vol. 3, PPO Update, No. 10, 1989). […] The cytotoxic activity of the present selenophene compounds have been measured utilizing two different assays or screens. […]
Catalogue of LC50 readings, one per entry.

molecule	LC50
OCc1ccc(-c2ccc(-c3cccs3)[se]2)s1	> 100 µM
O=Cc1ccc(-c2ccc(-c3ccc[se]3)[se]2)[se]1	> 100 µM
OCc1ccc(-c2ccc(-c3ccc(CO)s3)[se]2)s1	> 100 µM
O=Cc1ccc(-c2ccc(-c3ccc(C=O)[se]3)[se]2)[se]1	> 100 µM
OCc1ccc(-c2ccc(-c3ccc(CO)[se]3)[se]2)[se]1	70.8 µM
O=Cc1ccc(-c2ccc(-c3cccs3)[se]2)s1	> 100 µM
OCc1ccc(-c2ccc(-c3ccc(CO)[se]3)s2)s1	97.7 µM
O=Cc1ccc(-c2ccc(-c3ccc(C=O)s3)[se]2)s1	> 100 µM
OCc1ccc(-c2ccc(-c3ccc[se]3)[se]2)[se]1	> 100 µM
O=Cc1ccc(-c2ccc(-c3ccc(C=O)[se]3)s2)s1	> 100 µM
O=Cc1ccc(-c2ccc(-c3ccc(C=O)[se]3)s2)[se]1	> 100 µM
OCc1ccc(-c2ccc(-c3ccc(CO)[se]3)s2)[se]1	> 100 µM
OCc1ccc(-c2ccc(-c3ccc[se]3)s2)[se]1	> 100 µM
